System: C. albicans CaCi-8 + fluconazole, Alamar Blue, 48 h
Assay: fluconazole-treated resistant Candida growth reduction – CaCi-8 resistant strain, dry powder, set 6, antifungal resistance reversal project, dose response (AID 493069)
Results filed as inconclusive are left out. Calls of active or inactive are those of the source.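 The calls were made as follows: active = growth-curve midpoint potency at or below a set limit tied to the top tested dose, or full inhibition throughout; inconclusive = flat partial inhibition between 30 and 70%, or poor fit; inactive = the rest.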
Classes to choose from: yes (1) = active, no (0) = inactive

The examples below pair each entry with its known result.
O=C(O)Cn1nc(-c2ccccc2)c2ccccc21 ... no (0)
O=C(Cn1c2ccccc2c2nc3n(c(=O)c21)CCS3)N1CCOCC1 ... yes (1)
COC(=O)Cn1nc(-c2ccccc2)c2ccccc21 ... yes (1)
COC(=O)Cn1nc(-c2ccc(C)cc2)c2ccccc21 ... yes (1)
O=c1c2[nH]c3ccccc3c2nc2n1CCS2 ... yes (1)
O=C(Cn1c2ccccc2c2ccncc21)N1CCCCC1 ... yes (1)
COC(=O)Cn1nc(-c2ccc(Cl)cc2)c2ccccc21 ... yes (1)
O=C(Cn1c2ccccc2c2nc3n(c(=O)c21)CCS3)N1CCCCC1 ... yes (1)

Query: Returns: the outcome recorded for `CC1CCN(C(=O)Cn2c3ccc(F)cc3c3nc4n(c(=O)c32)CCCS4)CC1` in this assay.
Response: yes (1)

Query: Returns: the outcome recorded for `CC1CCN(C(=O)Cn2c3ccccc3c3nc4n(c(=O)c32)CCS4)CC1` in this assay.
Response: yes (1)

Query: Returns: the outcome recorded for `O=c1c2[nH]c3ccc(F)cc3c2nc2n1CCS2` in this assay.
Response: yes (1)
